# SYSTEM_NAME: Monocarboxylate transporter 2 (Rattus norvegicus)
# Sequence (Q63344 whole entry): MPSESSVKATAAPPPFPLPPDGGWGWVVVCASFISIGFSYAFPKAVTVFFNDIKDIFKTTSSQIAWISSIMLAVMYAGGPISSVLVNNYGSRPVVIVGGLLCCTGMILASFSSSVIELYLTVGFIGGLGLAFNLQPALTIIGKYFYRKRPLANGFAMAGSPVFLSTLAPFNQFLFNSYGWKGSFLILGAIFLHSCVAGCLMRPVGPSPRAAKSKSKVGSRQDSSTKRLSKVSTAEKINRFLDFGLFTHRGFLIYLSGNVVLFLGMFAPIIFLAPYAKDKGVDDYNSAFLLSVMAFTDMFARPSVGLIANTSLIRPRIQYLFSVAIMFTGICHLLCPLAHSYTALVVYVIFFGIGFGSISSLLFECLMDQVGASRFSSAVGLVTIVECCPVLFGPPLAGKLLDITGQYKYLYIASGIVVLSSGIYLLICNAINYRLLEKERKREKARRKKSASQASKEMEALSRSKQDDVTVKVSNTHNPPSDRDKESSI
pKi: −log10 of the molar value.

[
  {
    "SMILES_DATA": "Cc1n[nH]c(C)c1Cc1sc2c(c1C(=O)N1C[C@@H](O)CO1)c(=O)n(C)c(=O)n2CC(C)C",
    "pKi": "> 8.00"
  }
]

###

# SYSTEM_NAME: Monocarboxylate transporter 1 (Rattus norvegicus, UniProt P53987)
# Sequence (P53987 whole entry): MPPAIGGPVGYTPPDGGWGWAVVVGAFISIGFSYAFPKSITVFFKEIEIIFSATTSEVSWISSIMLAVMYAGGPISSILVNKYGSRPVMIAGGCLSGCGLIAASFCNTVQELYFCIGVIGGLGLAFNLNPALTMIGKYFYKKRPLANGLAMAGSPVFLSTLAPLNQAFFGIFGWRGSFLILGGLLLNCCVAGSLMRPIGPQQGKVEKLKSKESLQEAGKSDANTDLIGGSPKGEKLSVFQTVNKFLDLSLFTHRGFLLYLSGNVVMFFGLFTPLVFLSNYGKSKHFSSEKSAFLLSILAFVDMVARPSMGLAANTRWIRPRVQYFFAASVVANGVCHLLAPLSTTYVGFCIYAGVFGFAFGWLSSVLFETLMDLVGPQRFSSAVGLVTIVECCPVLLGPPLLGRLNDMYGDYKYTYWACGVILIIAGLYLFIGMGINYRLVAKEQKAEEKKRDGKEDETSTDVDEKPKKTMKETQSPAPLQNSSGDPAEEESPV
# TEST_NAME: Inhibition of MCT1 in rat Brain-like endothelial cells incubated for 15 mins in presence of [14C]lactic acid by scintillation counter assay
# Format: cell-based
pIC50: −log10 of the molar value.
# Lookup of reported pIC50 keyed by entry

[
  {
    "SMILES_DATA": "N#C/C(=C\\c1cn(-c2ccccn2)c2ccccc12)C(=O)O",
    "CENSORING_SIGN": "<",
    "pIC50": 6.00
  },
  {
    "SMILES_DATA": "N#C/C(=C\\c1cn(Cc2ccccc2)c2ccccc12)C(=O)O",
    "CENSORING_SIGN": "=",
    "pIC50": 7.18
  },
  {
    "SMILES_DATA": "N#C/C(=C\\c1cn(-c2ccccc2)c2ccccc12)C(=O)O",
    "CENSORING_SIGN": "=",
    "pIC50": 7.89
  }
]
